- Tested on: CCRF-CEM
- EXPERIMENT_DESCRIPTION: Antiviral activity evaluated as the ability to inhibit the replication of HIV-2 in human T-lymphocytic cells (CEM)
- Type: functional, cell-based
QUANTITY_MEASURED: EC50 (µM)
Quick note: give the figure in µM, leave out the unit.

Some solved cases for reference:
COMPOUND	EC50 [µM]
Cc1cccc2c1OP(=O)(OC[C@@H]1C[C@H](F)C(n3cnc4c(N)ncnc43)O1)OC2 (single isomer, unassigned)	3.3
Nc1ncnc2c1ncn2[C@H]1CC[C@@H](CO)O1	4.55
COc1ccc2c(c1)COP(=O)(OCC1C[C@@H](F)C(n3cnc4c(N)ncnc43)O1)O2 (stereo partly drawn)	25
Nc1ncnc2c1ncn2[C@@H]1O[C@H](CO)C[C@@H]1F	40
Nc1ncnc2c1ncn2C1OC(COP2(=O)OCc3ccccc3O2)C[C@@H]1F (stereo partly drawn)	1.85
Cc1cccc2c1OP(=O)(OC[C@@H]1C[C@@H](F)[C@H](n3cnc4c(N)ncnc43)O1)OC2 (stereo partly drawn)	12.5

Next, consider the following compound.
[Q] Fill in the recorded EC50 for this compound, with CCRF-CEM as test system: Cc1cccc2c1OP(=O)(OCC1C[C@@H](F)C(n3cnc4c(O)ncnc43)O1)OC2 (stereo partly drawn)
[A] 31.7

Value source: ChEMBL document CHEMBL1132719
